Origin of measurements: patent US5464820A

- tested system: urokinase (UK) (Homo sapiens)
- Construct: purchased Sigma Chemical Company (St. Louis, Mo.)
- test summary: Inhibition of urokinase (KI)
- Assay type: biochemical
- applied conditions: Table 7; read-out: K1 UK
endpoint: Ki

Field request: Ki | item: Pro-Map-Aph-Ser-Val-Gln [KIDZ-15]
> 20 mM

###

- tested system: porcine pancreatic kallikrein (PPK) (Sus scrofa)
- test summary: Inhibition of porcine pancreatic kallikrein, cleavage of chromogenic substrate S-2266 (KI)
- Format: biochemical
- applied conditions: Table 6; read-out: KI PPK
Non-standard residues stand in square brackets, D forms with d. No end group written: not given here. ChCar = not defined here; dia = not defined here
endpoint: Ki (µM)
Give your result in µM as a bare value.

Field request: Ki | item: ChCar-Phe-Arg-dia-Val-Gln (ChCar-FR[dia]VQ; reading uncertain; also: printed as ChCar-Phe-Arg-dia-Val-Gln)
114

###

- tested system: porcine pancreatic kallikrein (PPK) (Sus scrofa, UniProt P00752)
- Sequence (P00752 8-87 limits assumed): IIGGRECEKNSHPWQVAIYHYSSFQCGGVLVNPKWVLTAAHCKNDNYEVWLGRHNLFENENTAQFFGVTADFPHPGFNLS
- Sequence (P00752 95-246 limits assumed): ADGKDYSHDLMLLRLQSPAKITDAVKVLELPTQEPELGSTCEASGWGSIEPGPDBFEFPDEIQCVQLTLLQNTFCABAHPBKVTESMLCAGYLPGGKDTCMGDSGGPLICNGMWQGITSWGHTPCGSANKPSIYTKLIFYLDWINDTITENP
- test summary: Inhibition of porcine pancreatic kallikrein, cleavage of chromogenic substrate S-2266 (KI)
- Format: biochemical
- applied conditions: Table 7; read-out: K1 PPK
Non-standard residues stand in square brackets, D forms with d. Residues, ends and D or L forms follow the SMILES beside them. Phe(4-NH2) = Nc1ccc(C[C@H](N)C(=O)O)cc1; hLys = NCCCCC[C@H](N)C(=O)O
Consider the following compounds; for each one, report its Ki.
Give your result in µM as a bare value.

Field request: Ki | item: CC(C)[C@H](NC(=O)[C@H](CO)NC(=O)[C@H](CCCCN)NC(=O)[C@H](Cc1ccccc1)NC(=O)[C@@H]1CCCN1)C(=O)N[C@@H](CCC(N)=O)C(N)=O [KIDZ-2, Pro-Phe-Lys-Ser-Val-Gln] (H-PFKSVQ-NH2)
294

Field request: Ki | item: CC(C)[C@H](N)C(=O)N[C@@H](Cc1ccccc1)C(=O)N[C@H](C=O)Cc1ccc(N)cc1 [KITDS-2, Val-Phe-Phe(4NH2)-aldehyde] (H-Val-Phe-[Phe(4-NH2)]-aldehyde)
160

Field request: Ki | item: CC(C)[C@H](NC(=O)[C@H](CO)NC(=O)[C@H](CCCCCN)NC(=O)[C@H](Cc1ccccc1)NC(=O)[C@@H]1CCCN1)C(=O)N[C@@H](CCC(N)=O)C(N)=O [KIDZ-8, Pro-Phe-hLys-Ser-Val-Gln] (H-PF[hLys]SVQ-NH2)
203

Field request: Ki | item: Nc1ccc(C[C@@H](C=O)NC(=O)[C@H](Cc2ccccc2)NC(=O)[C@@H]2CCCN2C(=O)[C@@H](N)Cc2ccccc2)cc1 [KITSD-1, Phe-Pro-Phe-Phe(4NH2)-aldehyde] (H-FPF[Phe(4-NH2)]-aldehyde)
27

Field request: Ki | item: CC(C)[C@H](NC(=O)[C@H](CO)NC(=O)[C@H](Cc1ccc(N)cc1)NC(=O)[C@H](Cc1ccccc1)NC(=O)[C@@H]1CCCN1)C(=O)N[C@@H](CCC(N)=O)C(N)=O [KIDZ-6, Pro-Phe-Aph-Ser-Val-Gla] (H-PF[Phe(4-NH2)]SVQ-NH2)
36

###

Consider the following compounds; for each one, report its Ki.
- tested system: human plasma kallikrein (HPK) (Homo sapiens, UniProt P03952)
- Sequence (P03952 20-638): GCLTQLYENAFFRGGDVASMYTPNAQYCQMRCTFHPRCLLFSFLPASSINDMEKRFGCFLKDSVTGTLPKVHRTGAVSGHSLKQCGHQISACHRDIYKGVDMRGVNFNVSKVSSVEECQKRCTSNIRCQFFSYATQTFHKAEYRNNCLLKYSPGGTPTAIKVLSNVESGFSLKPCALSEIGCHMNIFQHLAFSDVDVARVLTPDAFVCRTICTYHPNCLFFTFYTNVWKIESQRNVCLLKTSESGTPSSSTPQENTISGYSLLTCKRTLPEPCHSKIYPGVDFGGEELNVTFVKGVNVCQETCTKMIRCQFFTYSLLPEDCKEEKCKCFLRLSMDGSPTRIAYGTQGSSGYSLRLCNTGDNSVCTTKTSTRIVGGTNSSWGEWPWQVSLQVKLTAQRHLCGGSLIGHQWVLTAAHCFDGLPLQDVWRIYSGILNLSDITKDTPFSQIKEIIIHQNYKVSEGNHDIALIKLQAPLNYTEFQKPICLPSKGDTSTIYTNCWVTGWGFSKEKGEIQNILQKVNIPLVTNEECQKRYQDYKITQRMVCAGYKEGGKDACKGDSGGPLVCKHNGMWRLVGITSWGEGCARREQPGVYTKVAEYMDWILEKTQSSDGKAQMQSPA
- test summary: Inhibition of human plasma kallikrein (KI)
- Format: biochemical
- applied conditions: Table 5, Pro-Phe-Arg-X-Val-Gln; read-out: KI HPK
Non-standard residues stand in square brackets, D forms with d. Residues, ends and D or L forms follow the SMILES beside them. hSer = N[C@@H](CCO)C(=O)O
Give your result in µM as a bare value.

Field request: Ki | item: CC(C)[C@H](NC(=O)[C@H](CCO)NC(=O)[C@H](CCCNC(=N)N)NC(=O)[C@H](Cc1ccccc1)NC(=O)[C@@H]1CCCN1)C(=O)N[C@@H](CCC(N)=O)C(N)=O [Hse] (H-PFR[hSer]VQ-NH2)
359

Field request: Ki | item: CC(C)[C@H](NC(=O)[C@H](CC(N)=O)NC(=O)[C@H](CCCNC(=N)N)NC(=O)[C@H](Cc1ccccc1)NC(=O)[C@@H]1CCCN1)C(=O)N[C@@H](CCC(N)=O)C(N)=O [Asn] (H-PFRNVQ-NH2)
244

Field request: Ki | item: CC(C)[C@H](NC(=O)[C@H](C)NC(=O)[C@H](CCCNC(=N)N)NC(=O)[C@H](Cc1ccccc1)NC(=O)[C@@H]1CCCN1)C(=O)N[C@@H](CCC(N)=O)C(N)=O [Ala] (H-PFRAVQ-NH2)
536
